Source: patent US20210261621A1

Examples of compounds with documented MIC follow.
Tested on: K. pneumoniae 113254
Type: cell-based, Klebsiella pneumoniae
Conditions: 113254
Positions of bridges follow the written chain, without caps; N, C: chain ends. Non-standard residues stand in square brackets, D forms with d. Residues, ends and D or L forms follow the SMILES beside them. *: point of attachment. Acetyl(1-adamantyl) = O=C(CC12CC3CC(CC(C3)C1)C2)*; Benzoyl(4-Ph) = O=C(c1ccc(-c2ccccc2)cc1)*; Lauroyl = CCCCCCCCCCCC(=O)*; Octanoyl = CCCCCCCC(=O)*; Dab = NCC[C@H](N)C(=O)O; Butyryl = CCCC(=O)*
readout-name: MIC

compound | target-under-test | readout-name | reported
CC(C)C[C@@H]1NC(=O)[C@@H](Cc2ccccc2)NC(=O)[C@H](CCN)NC(=O)[C@@H](NC(=O)[C@H](CCN)NC(=O)[C@@H](NC(=O)[C@H](CCNC(=O)c2ccc(-c3ccccc3)cc2)NC(=O)c2ccc(-c3ccccc3)cc2)[C@@H](C)O)CCNC(=O)[C@H]([C@@H](C)O)NC(=O)[C@H](CCN)NC(=O)[C@H](CCN)NC1=O [Compound 5] ({Benzoyl(4-Ph)}-[Dab](Benzoyl(4-Ph))T[Dab][Dab][Dab][dF]L[Dab][Dab]T; lactam 4-C) | K. pneumoniae 113254 | MIC | >64 µg/mL
CCCCCCCCCCCC(=O)NCC[C@H](NC(=O)CCCCCCCCCCC)C(=O)N[C@H](C(=O)N[C@@H](CCN)C(=O)N[C@H]1CCNC(=O)[C@H]([C@@H](C)O)NC(=O)[C@H](CCN)NC(=O)[C@H](CCN)NC(=O)[C@H](CC(C)C)NC(=O)[C@@H](Cc2ccccc2)NC(=O)[C@H](CCN)NC1=O)[C@@H](C)O [Compound 3, Didodecanoic Acid (Di-C12) Polymyxin] (Lauroyl-[Dab](Lauroyl)T[Dab][Dab][Dab][dF]L[Dab][Dab]T; lactam 4-C) | K. pneumoniae 113254 | MIC | >64 µg/mL
CC(C)C[C@@H]1NC(=O)[C@@H](Cc2ccccc2)NC(=O)[C@H](CCN)NC(=O)[C@@H](NC(=O)[C@H](CCN)NC(=O)[C@@H](NC(=O)[C@H](CCNC(=O)CC23CC4CC(CC(C4)C2)C3)NC(=O)CC23CC4CC(CC(C4)C2)C3)[C@@H](C)O)CCNC(=O)[C@H]([C@@H](C)O)NC(=O)[C@H](CCN)NC(=O)[C@H](CCN)NC1=O [Compound 4] ({Acetyl(1-adamantyl)}-[Dab](Acetyl(1-adamantyl))T[Dab][Dab][Dab][dF]L[Dab][Dab]T; lactam 4-C) | K. pneumoniae 113254 | MIC | >64 µg/mL
CCCCCCCC(=O)NCC[C@H](NC(=O)CCCCCCC)C(=O)N[C@H](C(=O)N[C@@H](CCN)C(=O)N[C@H]1CCNC(=O)[C@H]([C@@H](C)O)NC(=O)[C@H](CCN)NC(=O)[C@H](CCN)NC(=O)[C@H](CC(C)C)NC(=O)[C@@H](Cc2ccccc2)NC(=O)[C@H](CCN)NC1=O)[C@@H](C)O [Compound 2, Dioctanoic Acid (Di-C8) Polymyxin] (Octanoyl-[Dab](Octanoyl)T[Dab][Dab][Dab][dF]L[Dab][Dab]T; lactam 4-C) | K. pneumoniae 113254 | MIC | >64 µg/mL
CCCC(=O)NCC[C@H](NC(=O)CCC)C(=O)N[C@H](C(=O)N[C@@H](CCN)C(=O)N[C@H]1CCNC(=O)[C@H]([C@@H](C)O)NC(=O)[C@H](CCN)NC(=O)[C@H](CCN)NC(=O)[C@H](CC(C)C)NC(=O)[C@@H](Cc2ccccc2)NC(=O)[C@H](CCN)NC1=O)[C@@H](C)O [Compound 1, Dibutyric Acid (Di-C4) Polymyxin] (Butyryl-[Dab](Butyryl)T[Dab][Dab][Dab][dF]L[Dab][Dab]T; lactam 4-C) | K. pneumoniae 113254 | MIC | >64 µg/mL
